systemUnderTest: Phosphodiesterase 4 (Homo sapiens, UniProt P27815+Q08499+Q07343+Q08493)
experimentDescription: In vitro inhibition of phosphodiesterase (PDE IV) from guinea pig macrophages.
Assay type: protein assay, Cavia porcellus
measurementParameters: target entry is the homologue from another species
measureName: IC50
Number first, unit second: that is the form wanted.

Here is how some compounds turned out for IC50.
COc1ccc(C2(Cc3ccccc3)CCN(C(=O)OC(C)(C)C)C2=O)cc1OC1CCCC1 (stereo not given)    220 nM
COc1ccc(C2(Cc3cc[n+]([O-])cc3)CCNC2=O)cc1OC1CCCC1 (stereo not given)    1600 nM
COc1ccc(C2(Cc3ccncc3)CCN(CCC(C)C)C2=O)cc1OC1CCCC1 (stereo not given)    81 nM

# batch size: 2; output IC50 per entry
1. CCOC(=O)N1CCC(Cc2ccncc2)(c2ccc(OC)c(OC3CCCC3)c2)C1=O (stereo not given)
2. COc1ccc(C2(Cc3ccncc3)CCN(Cc3cccc4ccccc34)C2=O)cc1OC1CCCC1 (stereo not given)

1: 137 nM; 2: 293 nM

---

What IC50 was measured for each of the following?
systemUnderTest: Phosphodiesterase 4 (Homo sapiens, UniProt P27815+Q08499+Q07343+Q08493)
experimentDescription: In vitro inhibition of phosphodiesterase (PDE IV) from guinea pig macrophages.
Assay type: protein assay, Cavia porcellus
measurementParameters: target entry is the homologue from another species
Numbers only, in nM.

See these solved cases before continuing.
CCCCN1CCC(Cc2ccncc2)(c2ccc(OC)c(OC3CCCC3)c2)C1=O (stereo not drawn)    123
COc1ccc(C2(Cc3ccncc3)CCN(C(=O)OC(C)C)C2=O)cc1OC1CCCC1 (stereo not drawn)    44
COc1ccc(C2(Cc3ccncc3)CCN(Cc3ccncc3)C2=O)cc1OC1CCCC1 (stereo not drawn)    401

Please state, for each entry, its recorded IC50.
1. COc1ccc(C2(Cc3cc[n+]([O-])cc3)CCN(C(=O)OC(C)(C)C)C2=O)cc1OC1CCCC1 (stereo not drawn)
2. COC(=O)N1CCC(Cc2ccncc2)(c2ccc(OC)c(OC3CCCC3)c2)C1=O (stereo not drawn)
3. COc1ccc(C2(Cc3ccncc3)CCN(C(=O)OC(C)(C)C)C2)cc1OC1CCCC1 (stereo not drawn)
4. COc1ccc(C2(Cc3ccccc3)CCNC2=O)cc1OC1CCCC1 (stereo not drawn)

59
293
807
1000

Param item = COc1ccc(C2(Cc3ccncc3)CCN(C(C)=O)C2=O)cc1OC1CCCC1 (stereo not drawn) ; retrieve measured IC50. 461

---

systemUnderTest: Phosphodiesterase 4 (Homo sapiens, UniProt P27815+Q08499+Q07343+Q08493)
experimentDescription: Affinity for phosphodiesterase (PDE IV) in guinea pig brain membrane using [3H]rolipram displacement.
Assay type: cell membranes, Cavia porcellus
measurementParameters: target entry is the homologue from another species
measureName: Ki

Completed entries (count: 4):
CCCCN1CCC(Cc2ccncc2)(c2ccc(OC)c(OC3CCCC3)c2)C1=O (stereo not given)    137 nM
COc1ccc(C2(Cc3cc[n+]([O-])cc3)CCN(C(=O)OC(C)(C)C)C2=O)cc1OC1CCCC1 (stereo not given)    217 nM
COc1ccc(C2(Cc3ccncc3)CCN(C(=O)OC(C)(C)C)C2=O)cc1OC1CCCC1 (stereo not given)    7.5 nM
CCOC(=O)N1CCC(Cc2ccncc2)(c2ccc(OC)c(OC3CCCC3)c2)C1=O (stereo not given)    139 nM

# context switch: different compound, same Ki
Need Ki of COc1ccc(C2(Cc3ccncc3)CCN(Cc3ccccc3)C2=O)cc1OC1CCCC1 (stereo not given) , thanks. 51 nM
